System: IL-6-GFP PC-9
Experiment: cell viability (CCK-8 OD) relative to DMSO control (fraction of control); higher = more viable cells
Details: compound concentration: 10 uM; treatment time: 48 h
So basically: is cell viability under 1? Then Yes. Not under? Then No.

// query Is 1 strictly greater than the compound's reported cell viability? compound: CCC(=O)OC1(C(=O)CCl)C(C)CC2C3CC(F)C4=CC(=O)C=CC4(C)C3(F)C(O)CC21C (centres undefined) [Halobetasol Propionate]
// result No

// query Is 1 strictly greater than the compound's reported cell viability? compound: Cc1ccc(C2OC(CO)C(O)C(O)C2O)cc1Cc1ccc(-c2ccc(F)cc2)s1.Cc1ccc(C2OC(CO)C(O)C(O)C2O)cc1Cc1ccc(-c2ccc(F)cc2)s1.O (centres undefined) [Canagliflozin hemihydrate]
// result Yes

// query Is 1 strictly greater than the compound's reported cell viability? compound: `CCOc1cc2ncc(C#N)c(Nc3ccc(OCc4ccccn4)c(Cl)c3)c2cc1NC(=O)/C=C/CN(C)C`
// result Yes

// query Is 1 strictly greater than the compound's reported cell viability? compound: `CNCc1ccc(-c2[nH]c3cc(F)cc4c3c2CCNC4=O)cc1.O=P(O)(O)O`
// result No

// query Is 1 strictly greater than the compound's reported cell viability? compound: `Cc1ccc(-c2ncc(Cl)cc2-c2ccc(S(C)(=O)=O)cc2)cn1`
// result No

// query Is 1 strictly greater than the compound's reported cell viability? compound: CS(=O)(=O)O.Cc1ccc(NC(=O)c2ccc(CN3CCN(C)CC3)cc2)cc1Nc1nccc(-c2cccnc2)n1 [Imatinib Mesylate (STI571)]
// result No

// query Is 1 strictly greater than the compound's reported cell viability? compound: CC(OC1OCCN(Cc2n[nH]c(=O)[nH]2)C1c1ccc(F)cc1)c1cc(C(F)(F)F)cc(C(F)(F)F)c1 (centres undefined) [Aprepitant]
// result Yes

// query Is 1 strictly greater than the compound's reported cell viability? compound: CC(NCc1ccc(OCc2cccc(F)c2)cc1)C(N)=O.CS(=O)(=O)O (centres undefined) [Safinamide Mesylate]
// result Yes

// query Is 1 strictly greater than the compound's reported cell viability? compound: CCC1(O)C(=O)OCc2c1cc1n(c2=O)Cc2cc3cc(O)ccc3nc2-1 [(S)-10-Hydroxycamptothecin]
// result Yes

// query Is 1 strictly greater than the compound's reported cell viability? compound: COc1ccnc(CS(=O)c2nc3ccc(-n4cccc4)cc3[nH]2)c1C (centres undefined)
// result No

// query Is 1 strictly greater than the compound's reported cell viability? compound: `O=C(O)c1cc(-c2ccc(F)cc2F)ccc1O`
// result No

// query Is 1 strictly greater than the compound's reported cell viability? compound: CCCCOc1ccc(C(=O)CCN2CCCCC2)cc1.Cl [Dyclonine HCl]
// result No
